biological target: cell surface-expressed H3N2 WN/05 HA trimer (influenza A virus A/Wisconsin/67/2005 (H3N2)); assay: flow cytometry, HA-expressing 293T
# max. MFI listing for each entry below

| BINDER | max. MFI (MFI) |
| --- | --- |
| P28 (antibody, V domains shown) VH: EVQLVESGGGLVQPGGSLRLSCAASGFTINNSGIHWVRQAPGKGLEWVASIWPSGGYTYYADSVKGRFTISADTSKNTAYLQMNSLRAEDTAVYYCARFNSSYSSGLMDYWGQGTLVTVSS VL: DIQMTQSPSSLSASVGDRVTITCRASQDVWYSVAWYQQKPGKAPKLLIYFATGLYSGVPSRFSGSGSGTDFTLTISSLQPEDFATYYCQQYFNWPVTFGQGTKVEIKR | 127 |
| Do1 (antibody, V domains shown) VH: EVQLVESGGGLVQPGGSLRLSCAASGFTIDNGSIHWVRQAPGKGLEWVAWIGPYGGFTSYADSVKGRFTISADTSKNTAYLQMNSLRAEDTAVYYCARFYGSGSSSFMDYWGQGTLVTVSS VL: DIQMTQSPSSLSASVGDRVTITCRASQDVWGGVAWYQQKPGKAPKLLIFFSRYLYSGVPSRFSGSGSGTDFTLTISSLQPEDFATYYCQQYYNGPLTFGQGTKVEIKR | 278 |
| P58 (antibody, V domains shown) VH: EVQLVESGGGLVQPGGSLRLSCAASGFTIGGGGIHWVRQAPGKGLEWVAWIWPYWGYTYYADSVKGRFTISADTSKNTAYLQMNSLRAEDTAVYYCARFNSYSYSGVMDYWGQGTLVTVSS VL: DIQMTQSPSSLSASVGDRVTITCRASQDVYSYVAWYQQKPGKAPKLLISSSRGLYSGVPSRFSGSGSGTDFTLTISSLQPEDFATYYCQQYSSFPITFGQGTKVEIKR | 697 |
| S40 (antibody, V domains shown) VH: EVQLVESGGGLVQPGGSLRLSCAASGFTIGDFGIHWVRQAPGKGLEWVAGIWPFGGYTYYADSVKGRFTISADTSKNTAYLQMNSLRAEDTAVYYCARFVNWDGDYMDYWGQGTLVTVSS VL: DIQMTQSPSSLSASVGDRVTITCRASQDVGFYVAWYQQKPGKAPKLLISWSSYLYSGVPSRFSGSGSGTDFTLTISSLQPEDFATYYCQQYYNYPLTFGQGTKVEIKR | 109 |
